# subject-of-test: T1, human VPAC2 receptor (human, UniProt P41587 24-438)
# T1 sequence (looked up): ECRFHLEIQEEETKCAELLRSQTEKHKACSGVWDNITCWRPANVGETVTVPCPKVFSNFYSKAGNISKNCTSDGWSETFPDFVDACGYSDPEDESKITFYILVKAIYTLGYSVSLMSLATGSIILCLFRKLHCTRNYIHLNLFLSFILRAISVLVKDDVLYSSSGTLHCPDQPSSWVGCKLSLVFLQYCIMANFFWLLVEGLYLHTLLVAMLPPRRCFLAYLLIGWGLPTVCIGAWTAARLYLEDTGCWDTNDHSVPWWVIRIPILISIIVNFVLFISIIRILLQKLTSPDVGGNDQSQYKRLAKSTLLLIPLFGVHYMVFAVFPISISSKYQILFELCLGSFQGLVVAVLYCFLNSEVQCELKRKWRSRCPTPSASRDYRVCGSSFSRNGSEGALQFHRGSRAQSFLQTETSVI
# measurement-protocol: cell-based or functional assay
Where no end group is shown, it is not given here. The star is where a group is joined. Hexanoyl = CCCCCC(=O)*
readout-label: EC50 cAMP, DiscoveRx (nM)
API: value field is a number in nM; no unit string.

- HSDAVFTDNYTRLRKQVAAKKYLQSIKNNRYGGPSSGAPPPS [P75]: 3.44
- HSDVVFTDNYTRLRKQVAAKKYLQSIKNKRYGGPSSGAPPPS [P53]: 50.5
- Hexanoyl-HSDAVFTDNYTRLLAKLALQKYLQSIKNKRYGGPSSGAPPPS (also called VPAC2-P119) [P119]: 0.34

Now look at this one.
Notebook: HSDAVFTDNYTRLRKQVAAKKYLQSIKNKKGGT [P8] , EC50 cAMP, DiscoveRx read as 1.61
